Where do these numbers come from? They come from PubChem BioAssay (NCI).

experimental_protocol: NCI Yeast Anticancer Drug Screen. Data for the cln2 rad14 strain (AID 165);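 also: 0% = growth equal to vehicle treated cultures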
assay_context: S. cerevisiae cln2 rad14 strain, at 5.0 µM (retest, dose inferred, filed as 0.5)
About 79,000 compounds went through this panel and 15% of them were active in at least one assay; those are over-represented in the sample as a whole. Activity calls are given as the source filed them. Rule as the data show it: active = growth inhibition above about 70%; inactive = the rest.
Your answer must be one of the following: active, inactive

State the result this test recorded for O=C(Nc1cccc(Cl)c1)OCCN(CCOC(=O)Nc1cccc(Cl)c1)C(=O)Nc1cccc(Cl)c1 .
inactive

Please indicate how the test categorized CC1(C)CC(=O)C(CC2C(=O)c3ccccc3C2=O)C(=O)C1C(=O)C(=O)Nc1cccc2ccc(O)cc12 (stereo unspecified) .
inactive

What outcome does the record of this test show for Clc1ccc(CSCCc2ccncc2)cc1Cl ?
inactive

Each molecule tested received a call. Report the one for BrCC1(CBr)COC1 .
inactive

Hi, sorry to bother you, what did the test record for C[P+](c1ccccc1)(c1ccc(Cl)cc1)c1ccc(Cl)cc1 ?
inactive

Recorded test outcome, item C(=[CH]/[Sn]([c]1ccccc1)([c]1ccccc1)[c]1ccccc1)/c1ccccc1
active

Called result for C=CC(c1ccccc1)[C@@]1(OC(C)=O)C(=O)C(=O)OC1C1COC(C)(C)O1 (stereo partly specified)
inactive

So what was the verdict on O=[N+]([O-])c1ccc(Cl)c(C(Nc2nncs2)Nc2nncs2)c1 in this test?
inactive

Give the logged outcome of this assay for the following molecule: O=C(n1c2ccccc2c2n[nH]c(=S)nc21)C(F)(F)F
inactive

Tell me the recorded outcome of this test for CC(/C=C1\CCC(CN(C)C)C1=O)c1cccc(Br)c1 (stereo unspecified) .
inactive

How did this test come out for Cc1cccc(O)c(=O)c1 ?
inactive

###

Task for the reader: assign each of the following molecules its reported growth inhibition.
experimental_protocol: NCI Yeast Anticancer Drug Screen. Data for the rad50 strain (AID 155);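 also: 0% = growth of vehicle-only cultures of the same strain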
assay_context: S. cerevisiae rad50 strain growth inhibition; at 50.0 µM; active compounds read high
Compounds without any hit were thinned out: in the full panel of roughly 79,000, 15% have a hit.
Write down the numeric answer in % and omit the unit.

Quickly give me recorded growth inhibition for C/C([O-])=C1\Cc2ccccc2C1=O.C/C([O-])=C1\Cc2ccccc2C1=O.CC[O-].CC[O-].[Ti+4]
89

Output growth inhibition of FC(F)(F)c1cc(NC(=S)SC2CCCCC2)ccc1Cl
41

Answer with the recorded growth inhibition of NC1=C(O)C(=O)C(c2c3ccccc3cc3ccccc23)O1 (stereo not given) only.
98.2

Supply measured growth inhibition of CC(=O)OCc1cc2ccccc2nc1C(Br)(Br)Br in your reply.
96

Note growth inhibition for the molecule shown: Oc1cc(O)c2c(c1)OC(c1ccc(O)c(O)c1)C(OC1(c3cc(O)c(O)c(O)c3)Oc3cc(O)cc(O)c3C(O)C1O)C2 (stereo not given)
-3.85

###

Provide the recorded growth inhibition for the entries that follow.
experimental_protocol: NCI Yeast Anticancer Drug Screen. Data for the bub3 strain (AID 167)
assay_context: S. cerevisiae bub3 mutant strain, at 50.0 µM (retest, dose inferred, filed as 5.0), active compounds read high
Method: Growth inhibition of yeast strains with defined genetic alterations is measured as a screen for potential anti-cancer activity. Selected strains with alterations in DNA damage repair or cell cycle control were exposed to compounds and growth inhibition was measured relative to vehicle treated controls. The strain used in this assay is bub3
This is part of a sample that, as a whole, favours compounds with a hit. Of some 79,000 tested, about 15% had one in any assay.
Give your result in % as a bare value.

Using the record for CCOC(=O)Cc1csc(/N=C\c2c(O)c3ccccc3oc2=O)n1 , state its measured growth inhibition.
42

Please give the documented growth inhibition of CC(=O)OC1COC(n2ccc3cc(Br)c([N+](=O)[O-])cc32)C(OC(C)=O)C1OC(C)=O (centres undefined)
71

For CC1CCC2(C)C(CC=C(C=O)C2(O)C=O)C12CO2 (centres undefined) , write its growth inhibition.
54

State, in one line, measured growth inhibition of O=C(O)CC/C(=N\Nc1ccccc1)C(=O)O
93

Supply reported growth inhibition belonging to this molecule: Clc1ccc(CN2COc3c(ccc4cccnc34)C2)cc1
85

Answer with reported growth inhibition of CCOC(=O)c1c(Cl)nc2ccccc2c1N=[N+]=[N-]
81

Retrieve growth inhibition measured for N#C/C(=C/c1ccccc1B(O)O)C(=O)O and print it.
-96

Given COc1ccccc1C(c1cc2c(cc1O)OCO2)N1CCOCC1 (centres undefined) , respond with its growth inhibition.
99

Look up growth inhibition of CCN(C(C)=O)c1cnc(/C=N/NC(N)=S)c2ccccc12 and report it.
71

Entry NC(CCl)=NCC1C2CC3CC(C2)CC1C3 (centres undefined) needs its growth inhibition filled in; supply it.
98

Using known records, supply growth inhibition for CCCCOC(=O)c1ccc(O)c(OC)c1
96

Please indicate growth inhibition recorded for O=C1NN=C(c2ccc(Cl)cc2)CC1C1C(=O)N(c2ccccc2)N=C1c1ccccc1 (centres undefined)
95

Give the reported value of growth inhibition for this record: CC(C)Sc1nc(NC(=O)N(CCCl)N=O)cc(=O)[nH]1
7

Could you please provide reported growth inhibition for O=C(Nc1ccc([N+](=O)[O-])cc1[N+](=O)[O-])C(=O)C(C(=O)c1ccc(Cl)c(Cl)c1)C1OC(=O)c2ccccc21 (centres undefined) ? Thanks!
31

Tell us which growth inhibition value is on record for CC1Cc2ccc3c(c2C(c2ccc4c(c2)OCO4)C1C)OCO3 (centres undefined)
-3

Consider the molecule COc1ccc(N(C)Sc2ccccc2)cc1 . State its measured growth inhibition.
90

Could you please provide reported growth inhibition for CCN(CC)CCOc1c(I)cc(I)cc1I ? Thanks!
98

Give growth inhibition for F[Si](c1ccccc1)(c1ccccc1)c1ccccc1
98

State its growth inhibition for this molecule: CN(C)CCOc1cc2c(c3ccccc13)-c1ccccc1C2O (centres undefined)
34

Quote growth inhibition reported for CC1(C)CC(=O)C(/C=N/c2nc(-c3cccc([N+](=O)[O-])c3)cs2)=C(O)C1 please.
99

Quick one: give measured growth inhibition for Cn1c2nc(-[n+]3ccc(-c4ccccc4)cc3)nc-2c([O-])n(C)c1=O
-3

Identify growth inhibition associated with the molecule c1ccc2c(c1)cc(C1NCCc3[nH]cnc31)c1ccccc12 (centres undefined)
96

Give reported growth inhibition value for Cc1ncc(Br)c(C(=O)O)n1
-6

Note growth inhibition for the molecule shown: N#CC(CC(Br)CBr)(c1ccccc1)c1ccccc1 (centres undefined)
11
